Cited source: a melting point compilation (Tetko et al.; mined from patent text by program, amines drawn as free bases though some values may be those of a salt)

Hi there, I'd appreciate the recorded melting point for every entry that follows.

Short answer for CC(O)c1nc(N)nc(N)c1-c1ccc(Cl)cc1 (stereo not given) : melting point was 159 °C

Short answer for "Cc1ccccc1NC(=O)CN1C[C@@H](C)N(S(=O)(=O)c2cccc(C#N)c2)[C@@H](C)C1" : melting point was 152 to 153 °C

Short answer for "N#Cc1cccc(C=O)c1[N+](=O)[O-]" : melting point was 109 to 111 °C

Short answer for "CCCOc1ccccc1-c1nc2sccc2c(=O)[nH]1" : melting point was 115 to 117 °C

Short answer for "Cc1ccc(N(c2ccc(-c3ccccc3)cc2)c2ccc(C)c(C)c2)cc1" : melting point was 128 to 130 °C

---

quantity: melting point

Short answer for "COc1cccc2c(=O)n(C(C)(C)C(=O)OCC(=O)c3ccccc3)c(=O)[nH]c12" : melting point was 132 to 133 °C

Short answer for "CCCCn1c(=O)cc(O)c2ccccc21" : melting point was 211 to 213 °C

Short answer for "CC(C)(C)OC(=O)c1ccc(C(=O)N(Cc2ccccc2)S(=O)(=O)c2ccc(Br)cc2)cc1" : melting point was 120 to 122 °C

Short answer for CC(C)CC(CS)C(N)=O (centres undefined) : melting point was 147 to 154 °C

Short answer for "CCCCc1nc2c(N)nc3ccc(OCC(=O)N(CC)CC)cc3c2n1C" : melting point was 186 to 188 °C

Short answer for "O=C1CN2Cc3cc(OCCCC(=O)N(CCCCCCOC(=O)c4ccccc4)C4CCCCC4)ccc3N=C2N1" : melting point was 94 to 95 °C

Short answer for CCn1cc(C(=O)O)c(=O)c2cc(F)c(N3CCC(NC(C)=O)C3)nc21 (centres undefined) : melting point was 283 to 284 °C

Short answer for "COc1ccc(-c2c(Cl)c(CN3C(=O)CCC3=O)nc3sc4c(c23)CCNC4)cc1" : melting point was 225 to 226 °C

Short answer for COC(=O)C1=C(C)NC(CC(=O)N2CCN(C3CC4CC(=O)CC4C3)CC2)=C(C(=O)OC)C1c1c(Cl)cccc1Cl (centres undefined) : melting point was 145 to 155 °C

---

Hi there, I'd appreciate the recorded melting point for every entry that follows.
Residues, ends and D or L forms follow the SMILES beside them. *: point of attachment. Tos = Cc1ccc(S(=O)(=O)*)cc1; Cam = NC(=O)C*

Short answer for Cc1cc(C)c(Nc2nc(C)nc(OC3CCOC3)c2C)c(C)c1 (centres undefined) : melting point was 126 to 128 °C

Short answer for "Cc1c(C(=O)O)cc(Cl)c2c1C(=O)CCS2" : melting point was 190 to 192 °C

Short answer for Cc1ccc(S(=O)(=O)N2CCC[C@H]2C(=O)N[C@@H](Cc2ccc(OCC(N)=O)cc2)C(=O)O)cc1 (Tos-Pro-Tyr(Cam)-OH) : melting point was 195 to 196 °C

Short answer for "O=C(O)c1cn(C2CC2)c2nc(N3Cc4ccccc4C3)c(F)cc2c1=O" : melting point was > 300 °C

Short answer for "O=C(O)C(=O)c1ccc(OCCCC(=O)c2ccc3ccccc3c2)cc1" : melting point was 133 to 135 °C

Short answer for CNCC1Cc2cc(-c3ccccc3)cc(-c3ccc(C)cc3)c2O1 (centres undefined) : melting point was > 250 °C

Short answer for "O=C1CC(C(F)(F)F)CC(=O)N1c1cc(OCSc2ccccc2)c(Cl)cc1F" : melting point was 108 to 110 °C

Short answer for "CNC(=S)n1nc(Oc2c(Cl)cc(C(F)(F)F)cc2Cl)cc1C" : melting point was 121 to 123 °C

Short answer for "CC(C)(C)OC(=O)NCC(=O)Nc1c(C(=O)CC(=O)Nc2nccs2)cccc1C(F)(F)F" : melting point was 166 °C

---

Hi there, I'd appreciate the recorded melting point for every entry that follows.

Short answer for Cc1c(C)c2c(c(C)c1O)CCC(C)(C1N[C@H](C(=O)O)CS1)O2 (stereo partly drawn) : melting point was 184 to 186 °C

Short answer for "CCOC(=O)CN1CCN(S(=O)(=O)c2ccc(N3CCC(NC[C@H](O)c4ccc(O)c(NS(C)(=O)=O)c4)CC3)cc2)CC1" : melting point was 91 to 92 °C

Short answer for "CN(C)c1cccc(CNc2nc(Nc3cccc(NS(C)(=O)=O)c3)nc3[nH]cnc23)c1" : melting point was 148 to 151 °C

Short answer for "COC(=O)CCc1oc(-n2ccnc2S(C)(=O)=O)nc1-c1ccc(Cl)cc1" : melting point was 112 to 113 °C

Short answer for "CCOCCCN(C)Cc1ccc(NC(=O)C2=Cc3cc(-c4ccc(OCC)cc4)ccc3S(=O)(=O)CC2)cc1" : melting point was 197 to 198 °C

Short answer for "COc1ccnc2c1C(=O)c1c(-c3ccccc3NC(=O)C(F)(F)F)ccnc1C2=O" : melting point was 158 °C

Short answer for "COc1ccc(C(=O)c2cc(Cl)ccc2N)c(O)c1OC" : melting point was 112 to 115 °C

Short answer for "Cc1cc(N)nc(CCc2nc3cc(-c4ccc(S(=O)(=O)N(C)C)cc4)cnc3[nH]2)c1" : melting point was 157 °C

Short answer for "CCP(=O)(CC)Cc1ccc(NC(=O)/C=C/c2cccc(-c3ccc(C)cc3)c2)cc1" : melting point was 197 to 198 °C

Short answer for "O=c1oc2c(Br)cc(Br)cc2s1" : melting point was 104 to 106 °C

Short answer for "CON(C)C(=O)Nc1nnc(SCc2cccnc2)s1" : melting point was 142 to 144 °C

Short answer for NC(=O)Cc1ccc(OCC(O)CNCCCCn2cnc3ccccc32)cc1 (stereo not drawn) : melting point was 119 to 123 °C

Short answer for COc1ccc(N2C(=O)[C@H](NC(=O)OC(C)(C)C)[C@@H]2CON2C(=O)c3ccccc3C2=O)cc1 (relative stereo) : melting point was 188 to 189 °C

Short answer for Cn1cccc1C(=O)C(C#N)C(=O)Nc1ccc([N+](=O)[O-])cc1 (stereo not drawn) : melting point was 193 to 195 °C

Short answer for "O=C(O)c1cccc(-c2cccc3cc(Cc4cccc(C(F)(F)F)c4)oc23)c1" : melting point was 169 to 170 °C

Short answer for "COc1ccc(C(=O)Nc2ccc3ccc(Oc4cccc(Cl)c4)nc3n2)cc1" : melting point was 182 °C

Short answer for CCC(C)(Oc1ccc(-c2ccccc2)cc1OC)C(=O)O (stereo not drawn) : melting point was 50 to 55 °C

Short answer for "Cn1ncnc1COc1nn2c(-c3ccccc3F)nncc2c1-c1cccs1" : melting point was 196 to 197 °C

Short answer for "COC(=O)c1cc(OC)c(NC(=O)OCc2ccccc2)c(OC)c1" : melting point was 132 to 133 °C

Short answer for "CN1C(=O)CCC2=C1Cc1cc(C(=O)c3ccc(Cl)c(S(N)(=O)=O)c3)ccc12" : melting point was 259 to 260 °C

Short answer for "N#CC1c2ccccc2Sc2ccccc21" : melting point was 103 to 105 °C

Short answer for CC(Cc1c[nH]c2ccccc12)(NC(=O)OC1C2CC3CC(C2)CC1C3)C(=O)NCCC1=CCCCC1 (stereo not drawn) : melting point was 77 to 79 °C

Short answer for "Oc1nc(O)c2c(n1)CCCS2" : melting point was > 300 °C

Short answer for CC1OC(n2cnc3c(Nc4ccccc4)ccnc32)C(O)C1O (stereo not drawn) : melting point was 219 °C

Short answer for "COc1ccc(N2CCN(c3ccc(NC(=O)Oc4ccccc4)cn3)CC2)cc1" : melting point was 197 to 198 °C

Short answer for CCn1cc(C(=O)O)c(=O)c2cc(F)c(N3CCNC(c4ccoc4)C3)cc21 (stereo not drawn) : melting point was 202 to 204 °C

Short answer for O=C(O)Cn1c(=O)c(-c2ccccc2Cl)cc2cnc(NC3C4CN(Cc5ccccc5)CC43)nc21 (stereo not drawn) : melting point was 159 to 163 °C

Short answer for "CNC(=O)C1(Nc2nc(Nc3cc4c(cc3OC)CCN(CCOC)CC4)ncc2Cl)CC1" : melting point was 211 to 215 °C

Short answer for CCCCC(Cc1ccc(OCCNC(=O)c2ccc(O)nc2)cc1)C(=O)O (stereo not drawn) : melting point was 69 to 71 °C

Short answer for O=C(CC(O)(c1cc(Cl)cc(Cl)c1)C(F)(F)F)c1ccc(-n2ccnc2)cc1 (stereo not drawn) : melting point was 161 to 162 °C

Short answer for NCC1Cc2cc(-c3ccccc3Cl)cc(F)c2O1 (stereo not drawn) : melting point was > 250 °C

Short answer for "COC(=O)c1cc(COc2nn(-c3ccccc3)cc2C=O)ccc1OCc1nc(-c2ccco2)oc1C" : melting point was 173 to 174 °C

Short answer for "Cc1ccc(-c2cnc(N)c([N+](=O)[O-])c2)cc1" : melting point was 183 to 184 °C

Short answer for "Cn1cnc(COc2nn3c(-c4ccccc4)nnc3cc2-c2ccco2)n1" : melting point was 257 to 259 °C

Short answer for "c1ccc2c(c1)OCCc1c-2n(CCN2CCCCC2)c2ccccc12" : melting point was 103 °C

Short answer for "CC(=O)SCCC(=O)OC(=O)CO" : melting point was 150 to 157 °C

Short answer for "CC(=O)Oc1c(C)c2c(-c3ccc(C(C)C)cc3)coc2c2ccccc12" : melting point was 118 to 119 °C

Short answer for "CCc1cc(NC(=O)c2nnnn2Cc2ccc(OC)cc2)c(O)c(C(C)=O)c1" : melting point was 140 to 142 °C
